# System tested: GABAa receptor
# Test protocol: GABAa receptor binding assay ([3H]-RO15-1788 [3H-Flumanzenil] displacement, rat cortical tissue)
# Settings: 0.5 nM 3H-RO15-1788, rat cortical tissue, 30 min at 4° C.
Structures can show the parent of a compound that is named as a salt.
Endpoint name: IC50 (nM)
Respond numerically; units are nM and should not be typed.

Answered cases to consult:
{"columns": ["Molecule", "IC50, nM"],
 "data": [
  ["COc1ccc(-c2ncc3[nH]c4c(c3n2)CC2(CCCO2)CC4)cc1 (stereo not drawn) [Compound 15]", 50],
  ["c1csc(-c2ncc3[nH]c4c(c3n2)CCCC4)c1 [Compound 10]", 9],
  ["c1ccc(-c2ncc3[nH]c4c(c3n2)CCCC4)cc1 [Compound 1]", 100],
  ["c1ccc(-c2ncc3[nH]c4c(c3n2)CCCCC4)cc1 [Compound 3]", 1000],
  ["COc1ccc(-c2ncc3[nH]c4c(c3n2)CCC4)cc1 [Compound 9]", 18]
]}

Task item: Write down the reported IC50 of c1ccc(CN2CCc3[nH]c4cnc(-c5ccccc5)nc4c3C2)cc1 [Compound 32, monohydrochloride] , test system: GABAa receptor.
Reply: 13

Task item: # returns recorded IC50 (system: GABAa receptor) for c1ccc(-c2ncc3[nH]c4c(c3n2)CCC4)cc1 [Compound 2]
Reply: 110

Task item: # get_value(readout= IC50, system= GABAa receptor) for c1ccc(COC2CCc3[nH]c4cnc(-c5ccccc5)nc4c3C2)cc1 (stereo not drawn) [Compound 5]
Reply: 100

All values here come from patent US5216159A.
